Cited source: patent US20250250357A1

# Assay System: T1, human MSLN-R1-his protein (human, UniProt Q13421 296-390)
# T1 construct: Self-made in HEK293E cells; also called human MSLN-R1 protein; hMSLN-R1-his; not shown: His tag
# T1 chain: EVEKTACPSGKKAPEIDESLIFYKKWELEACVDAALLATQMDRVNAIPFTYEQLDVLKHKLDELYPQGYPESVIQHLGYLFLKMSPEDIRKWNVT
# Measurement Description: ELISA on coated antigen, antibody 0.001 nM
Readout Type: OD450 (OD450)
Lab book: enter the figure in OD450, no units written.

Task item: What measured OD450 goes with S009-F3.80.22 (antibody, human IgG1, kappa, V domains shown, Human-murine chimeric antibody: murine VH/VL on human IgG1 heavy and kappa light constant regions) VH: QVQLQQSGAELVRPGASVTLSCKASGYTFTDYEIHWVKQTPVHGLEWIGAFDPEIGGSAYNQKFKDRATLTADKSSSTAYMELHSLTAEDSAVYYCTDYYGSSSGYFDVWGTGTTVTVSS VL: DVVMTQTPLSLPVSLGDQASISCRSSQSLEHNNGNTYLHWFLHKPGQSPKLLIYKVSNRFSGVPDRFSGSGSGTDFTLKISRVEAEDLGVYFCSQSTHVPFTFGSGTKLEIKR ?
Reply: 0.06

Task item: Let us now turn to S009-F3.16.1 (antibody, human IgG1, kappa, V domains shown, Human-murine chimeric antibody: murine VH/VL on human IgG1 heavy and kappa light constant regions) VH: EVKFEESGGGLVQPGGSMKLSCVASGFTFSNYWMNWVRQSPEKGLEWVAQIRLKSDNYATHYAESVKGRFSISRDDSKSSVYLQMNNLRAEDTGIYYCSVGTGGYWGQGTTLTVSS VL: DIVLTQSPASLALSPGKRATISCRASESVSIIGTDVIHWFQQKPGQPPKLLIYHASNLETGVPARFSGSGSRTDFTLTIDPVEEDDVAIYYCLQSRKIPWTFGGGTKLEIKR
Reply: 0.07

Task item: Another binder to check: S009-F3.7.3 (antibody, human IgG1, kappa, V domains shown, Human-murine chimeric antibody: murine VH/VL on human IgG1 heavy and kappa light constant regions) VH: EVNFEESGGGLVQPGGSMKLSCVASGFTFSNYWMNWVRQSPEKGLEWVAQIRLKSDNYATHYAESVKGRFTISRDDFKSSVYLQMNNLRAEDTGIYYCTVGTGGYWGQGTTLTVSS VL: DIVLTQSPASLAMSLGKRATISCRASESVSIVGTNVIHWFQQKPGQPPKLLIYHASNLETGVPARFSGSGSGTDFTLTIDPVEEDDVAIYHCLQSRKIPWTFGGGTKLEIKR
Reply: 0.07

Task item: And the next one, S009-F3.38.10 (antibody, human IgG1, kappa, V domains shown, Human-murine chimeric antibody: murine VH/VL on human IgG1 heavy and kappa light constant regions) VH: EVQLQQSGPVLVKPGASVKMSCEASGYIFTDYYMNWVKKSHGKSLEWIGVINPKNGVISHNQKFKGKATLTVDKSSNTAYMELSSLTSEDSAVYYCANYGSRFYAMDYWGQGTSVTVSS VL: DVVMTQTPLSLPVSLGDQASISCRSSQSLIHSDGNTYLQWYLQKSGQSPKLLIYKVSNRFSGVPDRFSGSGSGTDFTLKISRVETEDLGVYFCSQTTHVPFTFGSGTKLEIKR ?
Reply: 0.07

Task item: Likewise for S009-F3.45.21 (antibody, human IgG1, kappa, V domains shown, Human-murine chimeric antibody: murine VH/VL on human IgG1 heavy and kappa light constant regions) VH: DVQLQESGPGLVKPSQSLSLTCSVTGDSITSGYYWNWIRQFPGNKLEWMGFIRFDGTNNYNPSLKNRISITRDTSKNQFFLKLNSVTTEDTATYYCAREGSYAPAWFAYWGQGTLVTVSA VL: QIVLTQSPAIMSASPGEKVTMTCSASSSLSYMYWYQQKPGSSPRLLIYDTSNLASGVPVRFSGSGSGTSYSLTISRMEAEDAATYYCQQWSSYPPTFGGGTKLEIKR ?
Reply: 0.06

Task item: Quick one: S009-F3.74.20 (antibody, human IgG1, kappa, V domains shown, Human-murine chimeric antibody: murine VH/VL on human IgG1 heavy and kappa light constant regions) VH: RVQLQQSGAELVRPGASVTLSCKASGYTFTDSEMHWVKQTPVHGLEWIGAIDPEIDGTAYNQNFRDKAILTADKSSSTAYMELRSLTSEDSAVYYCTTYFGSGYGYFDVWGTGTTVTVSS VL: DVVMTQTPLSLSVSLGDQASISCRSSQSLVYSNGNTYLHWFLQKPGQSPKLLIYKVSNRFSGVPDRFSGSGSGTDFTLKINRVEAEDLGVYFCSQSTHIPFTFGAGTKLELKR
Reply: 0.06
